# Tested on: MV4-11
# Assay Name: Growth inhibition of human MV4-11 cells measured after 72 hrs
# Assay type: functional
Observation Type: GI50 (nM)

                              record_smiles  observation_type  observed
0  Cc1noc(C)c1-c1ccc2[nH]c(=O)cc(NCc3cc(Cl)cc(Cl)c3)c2c1              GI50      1400

A. Cc1noc(C)c1-c1ccc2[nH]c(=O)cc(NCc3ccc(Cl)cc3)c2c1
B. Cc1noc(C)c1-c1ccc2[nH]c(=O)cc(NCc3cccc(Br)c3)c2c1
# argmax over GI50 for candidates A and B Indicate which entry you chose by stating its label.
A

1. Cc1noc(C)c1-c1ccc2[nH]c(=O)cc(N3CCCC3)c2c1
2. Cc1noc(C)c1-c1ccc2[nH]c(=O)cc(NCc3ccccc3)c2c1
3. Cc1ccc(-c2nnc(Sc3c(-c4ccccc4)c4cc(Br)ccc4[nH]c3=O)n2N)cc1
4. Cc1noc(C)c1-c1ccc2[nH]c(=O)cc(NCCc3ccccc3)c2c1
Hello, I need these entries ordered by GI50, highest reading first. Thanks! Put the labels in the order asked and list them.
4, 1, 2, 3

P. Cc1noc(C)c1-c1ccc2[nH]c(=O)cc(NCc3cccc(Cl)c3)c2c1
Q. Cc1noc(C)c1-c1ccc2c(-c3ccccc3)cc(=O)[nH]c2c1
R. Cc1noc(C)c1-c1ccc2[nH]c(=O)cc(NCC3CCCCC3)c2c1
S. Cc1noc(C)c1-c1ccc2[nH]c(=O)cc(N3CCCCC3)c2c1
Please put the entries in order of rising GI50. Put the labels in the order asked and list them.
S, P, R, Q

P. Cc1noc(C)c1-c1ccc2[nH]c(=O)cc(NCc3ccccc3Cl)c2c1
Q. COc1ccccc1CNc1cc(=O)[nH]c2ccc(-c3c(C)noc3C)cc12
R. Cc1noc(C)c1-c1ccc2[nH]c(=O)cc(NCc3ccccc3Br)c2c1
S. Cc1noc(C)c1-c1ccc2[nH]c(=O)cc(-c3ccccc3)c2c1
Please put the entries in order of rising GI50. Put the labels in the order asked and list them.
Q, P, R, S

====

# Assay Name: Cmax in rat plasma at 50 mg/kg, po
# Format: ADME, organism-based
# Design: dose 50 mg/kg, route po
Observation Type: Cmax (ng/mL)
Answer format: numeric, ng/mL implied, no suffix.

Data point: Cc1noc(C)c1-c1ccc2[nH]c(=O)cc(NCc3ccccc3)c2c1 ; Cmax = 9340

====

# Assay Name: Half-life in CD-1 mouse plasma at 50 mg/kg, po
# Assay type: ADME, organism-based
Observation Type: half-life (h)
Answer format: numeric, h implied, no suffix.

Data point: Cc1noc(C)c1-c1ccc2[nH]c(=O)cc(NCc3ccccc3)c2c1 ; half-life = 1.02

====

# Assay Name: AUC(0 to t) in CD-1 mouse brain at 50 mg/kg, po
# Type: ADME, organism-based
# Parameters: dose 50 mg/kg, route po
Observation Type: AUC(0-t) (ng·h/mL)
Answer format: numeric, ng·h/mL implied, no suffix.

Data point: Cc1noc(C)c1-c1ccc2[nH]c(=O)cc(NCc3ccccc3)c2c1 ; AUC(0-t) = 755

====

# Target Entity: UniProt P33261
# Sequence (P33261 whole entry): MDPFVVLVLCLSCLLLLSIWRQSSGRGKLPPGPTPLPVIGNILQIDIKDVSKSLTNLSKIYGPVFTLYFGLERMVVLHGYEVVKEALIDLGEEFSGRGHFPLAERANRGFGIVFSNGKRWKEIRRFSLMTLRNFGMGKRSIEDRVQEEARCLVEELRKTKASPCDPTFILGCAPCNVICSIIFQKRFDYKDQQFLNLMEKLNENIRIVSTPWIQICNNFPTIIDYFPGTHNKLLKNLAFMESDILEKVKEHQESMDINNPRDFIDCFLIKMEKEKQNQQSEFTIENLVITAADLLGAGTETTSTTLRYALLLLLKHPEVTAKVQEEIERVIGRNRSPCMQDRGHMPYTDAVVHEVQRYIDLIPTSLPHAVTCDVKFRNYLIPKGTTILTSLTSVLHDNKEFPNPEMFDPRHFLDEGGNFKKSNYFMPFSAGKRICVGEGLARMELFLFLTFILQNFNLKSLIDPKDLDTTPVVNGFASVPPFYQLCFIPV
Observation Type: IC50

Data point: Cc1noc(C)c1-c1ccc2[nH]c(=O)cc(NCc3ccccc3)c2c1 ; IC50 = > 30 µM

====

# Assay Name: Half-life in CD-1 mouse brain at 50 mg/kg, po
# Type: ADME, organism-based
Observation Type: half-life (h)
Answer format: numeric, h implied, no suffix.

Data point: Cc1noc(C)c1-c1ccc2[nH]c(=O)cc(NCc3ccccc3)c2c1 ; half-life = 1.39

====

# Target Entity: Cytochrome P450 2D6 (Homo sapiens, UniProt P10635)
# Sequence (P10635 whole entry): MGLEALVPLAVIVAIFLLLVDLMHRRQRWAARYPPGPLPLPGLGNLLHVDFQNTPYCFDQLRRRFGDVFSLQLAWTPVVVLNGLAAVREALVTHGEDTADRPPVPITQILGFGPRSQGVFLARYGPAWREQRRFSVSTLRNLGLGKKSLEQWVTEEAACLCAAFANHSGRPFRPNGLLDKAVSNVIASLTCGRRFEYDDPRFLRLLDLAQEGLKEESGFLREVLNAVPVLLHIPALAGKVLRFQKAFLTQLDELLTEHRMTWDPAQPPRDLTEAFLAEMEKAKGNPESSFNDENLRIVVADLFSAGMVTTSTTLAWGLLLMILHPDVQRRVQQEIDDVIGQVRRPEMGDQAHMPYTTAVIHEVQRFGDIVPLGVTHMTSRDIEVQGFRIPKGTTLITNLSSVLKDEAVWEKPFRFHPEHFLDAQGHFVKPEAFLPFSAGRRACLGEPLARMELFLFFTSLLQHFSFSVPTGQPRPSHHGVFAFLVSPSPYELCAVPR
Observation Type: IC50

Data point: Cc1noc(C)c1-c1ccc2[nH]c(=O)cc(NCc3ccccc3)c2c1 ; IC50 = > 30 µM

====

# Assay Name: Cmax in CD-1 mouse plasma at 10 mg/kg, sc
# Format: ADME, organism-based
# Design: dose 10 mg/kg, route sc
Observation Type: Cmax (ng/mL)
Answer format: numeric, ng/mL implied, no suffix.

Data point: Cc1noc(C)c1-c1ccc2[nH]c(=O)cc(NCc3ccccc3)c2c1 ; Cmax = 7770

====

# Target Entity: Bromodomain-containing protein 4 (Homo sapiens)
# Assay Name: Inhibition of BRD4 bromodomain 1/2 (unknown origin) by Alphascreen assay
Observation Type: IC50 (µM)

The following molecules have reported results that may help.
>>> df
                              record_smiles  observed
0  Cc1noc(C)c1-c1ccc2[nH]c(=O)cc(-c3ccccc3)c2c1       3.1
1  Cc1ccc(-c2nnc(Sc3c(-c4ccccc4)c4cc(Br)ccc4[nH]c3=O)n2N)cc1       3.7

P. Cc1noc(C)c1-c1ccc2c(-c3ccccc3)cc(=O)[nH]c2c1
Q. Cc1noc(C)c1-c1ccc2[nH]c(=O)cc(O)c2c1
R. Cc1noc(C)c1-c1ccc2[nH]c(=O)cc(NCc3ccccc3)c2c1
Please put the entries in order of rising IC50. Put the labels in the order asked and list them.
R, P, Q
(R: 1.1 µM, P: 3.1 µM, Q: 16 µM)

====

# Assay Name: Cmax in CD-1 mouse plasma at 50 mg/kg, po
# Assay type: ADME, organism-based
# Parameters: dose 50 mg/kg, route po
Observation Type: Cmax (µg/mL)
Answer format: numeric, µg/mL implied, no suffix.

Data point: Cc1noc(C)c1-c1ccc2[nH]c(=O)cc(NCc3ccccc3)c2c1 ; Cmax = 60.9

====

# Assay Name: Tmax in CD-1 mouse plasma at 10 mg/kg, sc
# Assay type: ADME, organism-based
Observation Type: Tmax (h)
Answer format: numeric, h implied, no suffix.

Data point: Cc1noc(C)c1-c1ccc2[nH]c(=O)cc(NCc3ccccc3)c2c1 ; Tmax = 1

====

# Assay Name: Cmax in CD-1 mouse brain at 50 mg/kg, po
# Format: ADME, organism-based
# Design: dose 50 mg/kg, route po
Observation Type: Cmax (ng/mL)
Answer format: numeric, ng/mL implied, no suffix.

Data point: Cc1noc(C)c1-c1ccc2[nH]c(=O)cc(NCc3ccccc3)c2c1 ; Cmax = 289

====

# Assay Name: AUC(0 to t) in CD-1 mouse plasma at 10 mg/kg, sc
# Assay type: ADME, organism-based
# Set-up: dose 10 mg/kg, route sc
Observation Type: AUC(0-t) (ng·h/mL)
Answer format: numeric, ng·h/mL implied, no suffix.

Data point: Cc1noc(C)c1-c1ccc2[nH]c(=O)cc(NCc3ccccc3)c2c1 ; AUC(0-t) = 25100

====

# Target Entity: Cytochrome P450 3A4 (Homo sapiens, UniProt P08684)
# Sequence (P08684 whole entry): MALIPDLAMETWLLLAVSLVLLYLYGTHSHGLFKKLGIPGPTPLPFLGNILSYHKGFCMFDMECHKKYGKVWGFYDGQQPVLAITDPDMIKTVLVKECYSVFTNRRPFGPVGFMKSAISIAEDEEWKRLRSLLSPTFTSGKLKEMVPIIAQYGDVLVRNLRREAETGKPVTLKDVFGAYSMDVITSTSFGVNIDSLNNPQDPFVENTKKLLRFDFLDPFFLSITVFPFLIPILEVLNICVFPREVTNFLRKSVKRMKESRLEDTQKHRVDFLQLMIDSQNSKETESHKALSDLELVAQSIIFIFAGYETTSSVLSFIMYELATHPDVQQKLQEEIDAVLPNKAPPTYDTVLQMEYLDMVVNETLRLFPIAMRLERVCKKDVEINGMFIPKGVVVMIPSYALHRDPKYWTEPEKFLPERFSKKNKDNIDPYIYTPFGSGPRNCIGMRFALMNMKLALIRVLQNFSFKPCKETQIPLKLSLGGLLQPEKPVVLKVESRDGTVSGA
# Assay Name: Inhibition of CYP3A4 (unknown origin) by fluorescence based assay
# Format: ADME
pIC50: −log10 of the molar value.
Observation Type: pIC50

Data point: Cc1noc(C)c1-c1ccc2[nH]c(=O)cc(NCc3ccccc3)c2c1 ; pIC50 = < 4.52

====

# Target Entity: Bromodomain-containing protein 4 (Homo sapiens, UniProt O60885)
# Assay Name: Inhibition of BRD4 bromodomain 1/2 (unknown origin) assessed as dissociation constant by DiscoveRx BROMOscan assay
Observation Type: Kd (µM)

>>> df
                              record_smiles  observed
0  Cc1noc(C)c1-c1ccc2[nH]c(=O)cc(NCc3cccc(Cl)c3)c2c1     0.028
1  Cc1noc(C)c1-c1ccc2[nH]c(=O)cc(NCc3ccccc3F)c2c1      0.13

A. Cc1noc(C)c1-c1ccc2[nH]c(=O)cc(NCCc3ccccc3)c2c1
B. Cc1noc(C)c1-c1ccc2[nH]c(=O)cc(NCc3ccccc3Cl)c2c1
Pick one, A or B : lowest reported Kd. Indicate which entry you chose by stating its label.
B
(B: 0.055 µM, A: 0.49 µM)

a. Cc1noc(C)c1-c1ccc2c(-c3ccccc3)cc(=O)[nH]c2c1
b. COc1ccccc1CNc1cc(=O)[nH]c2ccc(-c3c(C)noc3C)cc12
# argmax over Kd for candidates a and b Indicate which entry you chose by stating its label.
a
(a: 7.4 µM, b: 0.035 µM)

1. Cc1noc(C)c1-c1ccc2[nH]c(=O)cc(N3CCCC3)c2c1
2. Cc1noc(C)c1-c1ccc2[nH]c(=O)cc(NCc3ccccc3)c2c1
3. Cc1noc(C)c1-c1ccc2[nH]c(=O)cc(O)c2c1
4. Cc1noc(C)c1-c1ccc2[nH]c(=O)cc(NCC3CCCCC3)c2c1
5. Cc1noc(C)c1-c1ccc2[nH]c(=O)cc(N3CCOCC3)c2c1
Please put the entries in order of rising Kd. Put the labels in the order asked and list them.
2, 4, 1, 5, 3

====

# Assay Name: Tmax in rat plasma at 50 mg/kg, po
# Type: ADME, organism-based
Observation Type: Tmax (h)
Answer format: numeric, h implied, no suffix.

Data point: Cc1noc(C)c1-c1ccc2[nH]c(=O)cc(NCc3ccccc3)c2c1 ; Tmax = 1.5
